The reported measurements were obtained from ChEMBL document CHEMBL1125157.

- target_under_test: Delta-type opioid receptor (Mus musculus) (UniProt P32300)
- Sequence (P32300 whole entry): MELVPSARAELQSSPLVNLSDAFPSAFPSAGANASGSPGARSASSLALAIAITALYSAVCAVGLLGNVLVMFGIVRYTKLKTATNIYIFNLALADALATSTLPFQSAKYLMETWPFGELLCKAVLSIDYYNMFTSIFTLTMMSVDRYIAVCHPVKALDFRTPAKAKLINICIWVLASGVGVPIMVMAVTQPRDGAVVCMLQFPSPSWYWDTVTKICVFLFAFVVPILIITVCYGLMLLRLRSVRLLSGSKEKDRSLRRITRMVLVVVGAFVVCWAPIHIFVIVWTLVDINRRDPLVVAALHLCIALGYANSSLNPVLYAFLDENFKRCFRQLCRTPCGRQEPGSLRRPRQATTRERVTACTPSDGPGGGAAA
- assay_protocol: Antagonistic activity (Ke) at Opioid receptor delta 1 was determined against DADLE in the mouse vas deferens (MVD)
- Type: functional, tissue-based
property: Ke

# count of solved cases: 5
CO[C@@]12CCC(=O)C[C@@]13CCN(CC1CC1)[C@@H]2Cc1cccc(OC(C)C)c13: 11300 nM
CCO[C@@]12CCC(=O)C[C@@]13CCN(CC1CC1)[C@@H]2Cc1ccc(OC)c(OC)c13: 1540 nM
C=CCN1CC[C@]23CC(=O)CC[C@@]2(OCC)[C@H]1Cc1ccc(OC)c(OC)c13: 665 nM
C=CCN1CC[C@]23CC(=O)CC[C@@]2(OCC)[C@H]1Cc1cccc(OC)c13: 3740 nM
CCO[C@@]12CCC(=O)C[C@@]13CCN(CC1CC1)[C@@H]2Cc1cccc(OC)c13: 2130 nM

Proceed to the following item.
Reported Ke, molecule C=CCN1CC[C@]23CC(=O)CC[C@@]2(OC)[C@H]1Cc1ccc(OC)c(OC)c13 : ____
179 nM

---

- target_under_test: Opioid receptors; mu & kappa (Homo sapiens) (UniProt P41145+P35372)
- Sequence (P35372 whole entry, looked up): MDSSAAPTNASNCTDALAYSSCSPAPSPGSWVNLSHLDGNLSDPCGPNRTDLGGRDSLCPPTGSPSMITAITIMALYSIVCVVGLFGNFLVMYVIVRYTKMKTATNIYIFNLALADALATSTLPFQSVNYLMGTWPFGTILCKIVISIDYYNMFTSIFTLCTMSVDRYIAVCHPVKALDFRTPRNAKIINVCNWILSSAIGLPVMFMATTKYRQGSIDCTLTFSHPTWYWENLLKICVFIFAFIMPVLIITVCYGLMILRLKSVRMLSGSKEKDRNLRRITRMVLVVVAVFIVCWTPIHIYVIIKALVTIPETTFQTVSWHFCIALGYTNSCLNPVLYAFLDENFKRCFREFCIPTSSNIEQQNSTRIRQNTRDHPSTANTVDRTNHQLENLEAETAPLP
- Sequence (P41145 whole entry, looked up): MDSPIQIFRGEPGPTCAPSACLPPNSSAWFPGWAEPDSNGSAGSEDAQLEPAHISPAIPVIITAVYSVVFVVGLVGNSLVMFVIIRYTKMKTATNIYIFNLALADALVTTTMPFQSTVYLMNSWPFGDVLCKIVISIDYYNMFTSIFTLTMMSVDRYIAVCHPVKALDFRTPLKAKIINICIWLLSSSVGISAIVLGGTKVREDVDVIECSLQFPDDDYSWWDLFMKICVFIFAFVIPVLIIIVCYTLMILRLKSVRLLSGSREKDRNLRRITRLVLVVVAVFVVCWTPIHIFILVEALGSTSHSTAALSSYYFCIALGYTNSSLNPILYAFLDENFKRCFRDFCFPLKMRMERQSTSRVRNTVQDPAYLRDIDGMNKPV
- assay_protocol: Selectivity ratio was determined using the Ke value of kappa receptor to that of mu receptor
Note to self: values exactly at 30 are Y. So Selectivity ratio at or above 30 is Y, below is N.

Check out these entries, answers already filled in.
CCO[C@@]12CCC(=O)C[C@@]13CCN(CC1CC1)[C@@H]2Cc1cccc(OC)c13: Y
C=CCN1CC[C@]23CC(=O)CC[C@@]2(OCC)[C@H]1Cc1cccc(OC)c13: Y
COc1cccc2c1[C@]13CCN(CC4CC4)[C@H](C2)[C@]1(OC)CCC(=O)C3: N

Does CO[C@@]12CCC(=O)C[C@@]13CCN(CC1CC1)[C@@H]2Cc1cccc(OC(C)C)c13 have a reported Selectivity ratio of at least 30?
N

Another molecule: CCO[C@@]12CCC(=O)C[C@@]13CCN(CC1CC1)[C@@H]2Cc1ccc(OC)c(OC)c13
Y

Another molecule: C=CCN1CC[C@]23CC(=O)CC[C@@]2(OCC)[C@H]1Cc1ccc(OC)c(OC)c13
Y

---

- target_under_test: Kappa-type opioid receptor (Mus musculus) (UniProt P33534)
- Sequence (P33534 whole entry): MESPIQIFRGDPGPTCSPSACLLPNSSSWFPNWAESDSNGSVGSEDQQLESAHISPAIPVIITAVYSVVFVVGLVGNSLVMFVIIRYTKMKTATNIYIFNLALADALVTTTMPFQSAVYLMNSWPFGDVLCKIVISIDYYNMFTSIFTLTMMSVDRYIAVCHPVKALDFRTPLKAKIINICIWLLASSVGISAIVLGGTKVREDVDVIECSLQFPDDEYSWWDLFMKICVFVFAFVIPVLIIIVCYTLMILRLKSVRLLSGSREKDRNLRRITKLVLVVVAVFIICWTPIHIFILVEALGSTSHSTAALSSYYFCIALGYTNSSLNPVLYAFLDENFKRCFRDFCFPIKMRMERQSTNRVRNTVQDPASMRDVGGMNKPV
- assay_protocol: Antagonistic activity (Ke) at Opioid receptor kappa 1 was determined against ethylketocyclazocine in the mouse vas deferens (MVD)
- Type: functional, tissue-based
Here the recorded Ke is given for each entry.
Reply numerically in nM, unit not repeated.

COc1ccc2c(c1OC)[C@]13CCN(CC4CC4)[C@H](C2)[C@]1(OC)CCC(=O)C3: 2100
CCO[C@@]12CCC(=O)C[C@@]13CCN(CC1CC1)[C@@H]2Cc1cccc(OC)c13: 1130
C=CCN1CC[C@]23CC(=O)CC[C@@]2(OCC)[C@H]1Cc1cccc(OC)c13: 2560

Reported Ke, molecule C=CCN1CC[C@]23CC(=O)CC[C@@]2(OC)[C@H]1Cc1cccc(OC)c13 : ____
6040

Another molecule: C=CCN1CC[C@]23CC(=O)CC[C@@]2(OC)[C@H]1Cc1ccc(OC)c(OC)c13
3900

Another molecule: C=CCN1CC[C@]23CC(=O)CC[C@@]2(OCC)[C@H]1Cc1ccc(OC)c(OC)c13
6190

Another molecule: CCCCOc1cccc2c1[C@]13CCN(CC4CC4)[C@H](C2)[C@]1(OC)CCC(=O)C3
811

Another molecule: CO[C@@]12CCC(=O)C[C@@]13CCN(CC1CC1)[C@@H]2Cc1cccc(OC(C)C)c13
2410

Another molecule: CCO[C@@]12CCC(=O)C[C@@]13CCN(CC1CC1)[C@@H]2Cc1ccc(OC)c(OC)c13
5300

Another molecule: CO[C@@]12CCC(=O)[C@@H]3Oc4cccc5c4C31CCN(CC1CC1)[C@@H]2C5
648
